# Test system: Tov112D
# EXPERIMENTAL_DETAILS: Primary qHTS to identify gynecologic anti-cancer compounds using libraries of approved drugs and bioactive compounds (AID 1345084); note: % is set by controls: 0 for no effect and ±100 for the full control effect; nearly all actives have a fitted effect of over 55% in size
# TEST_CONDITIONS: Gynecologic cancer cell panel viability, ATPlite luminescence, 48 h; series mostly up to 57.5 µM
Results filed as inconclusive are left out. The source made the active and inactive calls. Calls come from the whole dose curve; as a rule, active = well fitted cell-killing curve with a large enough effect; inconclusive = small, poorly fitted or top-dose-only effect, or effect the other way; inactive = flat fitted curve, though single readings scatter.
METRIC: activity change, negative = cytotoxicity

Answered cases to consult:
MOLECULE: CC(C)CC1(C(=O)OCc2ccc(O[C@@H]3O[C@H](CO)[C@@H](O)[C@H](O)[C@H]3O)cc2)CC(=O)OC(C(=O)O)CC(=O)OCC2OC(O1)C(OC(=O)/C=C/c1ccc(O)cc1)C(O)C2O (stereo partly specified)
MEASURED_ON: Tov112D
activity change, negative = cytotoxicity: 0.377% [at 11.6 µM] (inactive)
--
MOLECULE: CC1=C(C)C(=O)OC(C(C)C2C(O)CC3C4C5OC5C5(O)CC(OC6OC(CO)C(O)C(O)C6O)CC(O)C5(C)C4CCC32C)C1 (stereo unspecified)
MEASURED_ON: Tov112D
activity change, negative = cytotoxicity: inactive
--
MOLECULE: COc1cc(/C=C/C(=O)O[C@H]2[C@H](O)[C@@H](CO)O[C@@]2(CO)O[C@H]2O[C@H](COC(=O)c3ccc(O)cc3)[C@@H](O)[C@H](O)[C@H]2O)cc(OC)c1OC
MEASURED_ON: Tov112D
activity change, negative = cytotoxicity: inactive
--
MOLECULE: CC1OC(OC2C(CO)OC(OCC3OC(OC(=O)C45CCC(C)(C)CC4C4=CCC6C7(C)CCC(OC8OC(C(=O)O)C(O)C(OC9OC(CO)C(O)C(O)C9O)C8O)C(C)(C)C7CCC6(C)C4(C)CC5)C(O)C(O)C3O)C(O)C2O)C(O)C(O)C1O (stereo unspecified)
MEASURED_ON: Tov112D
activity change, negative = cytotoxicity: 0.769% [at 6.55 µM] (inactive)
--
MOLECULE: C=C1CCC2C(C)(C(=O)O)CC(O)CC2(C)C1CC/C(C)=C/C(=O)O (stereo unspecified)
MEASURED_ON: Tov112D
activity change, negative = cytotoxicity: inactive

Note: attention shifts to another entry.
### Prompt Please report the recorded activity change, negative = cytotoxicity for CC12CCC3c4ccc(O)cc4CCC3C1CCC2OC1OC(C(=O)O)C(O)C(O)C1O (stereo unspecified) .
### Response inactive

====

# Tested on: JEG-3
# EXPERIMENTAL_DETAILS: Primary qHTS to identify gynecologic anti-cancer compounds using libraries of approved drugs and bioactive compounds (AID 1345084); note: % is set by controls: 0 for no effect and ±100 for the full control effect; nearly all actives have a fitted effect of over 55% in size
# TEST_CONDITIONS: Gynecologic cancer cell panel viability, ATPlite luminescence, 48 h; series mostly up to 57.5 µM
# From the text: National Center for Advancing Translational Sciences [NCATS] Assay Overview: Chemotherapeutic drug responses vary from cancer to cancer and from patient to patient. […] ATPlite is a luminescence based assay reliant on the conversion of a luciferase substrate to light in the presence of ATP. As a cytotoxic compound will suppress growth and decrease the number of cells, the concentration of ATP will decrease, and less light signal will be detected in the well. […]
Records with an inconclusive call do not appear. Active and inactive are the calls of the source. Calls come from the whole dose curve; as a rule, active = well fitted cell-killing curve with a large enough effect; inconclusive = small, poorly fitted or top-dose-only effect, or effect the other way; inactive = flat fitted curve, though single readings scatter.
METRIC: activity change, negative = cytotoxicity

Answered cases to consult:
COMPOUND: C(#Cc1cccc(CN2CCOCC2)c1)CCN1CCCCC1
MEASURED_ON: JEG-3
METRIC: activity change, negative = cytotoxicity
DATA_VALUE: inactive
//
COMPOUND: COc1c(C)c(C(=O)c2ccc(N)c(C(=O)O)c2)n2ccccc12
MEASURED_ON: JEG-3
METRIC: activity change, negative = cytotoxicity
DATA_VALUE: inactive
//
COMPOUND: CCC/C=C/C(=O)O[C@H]1CC(C)(C)CC2[C@]13[C@H](O)O[C@@]21CCC2[C@@]4(C)CC[C@H](O[C@@H]5O[C@H](C(=O)O)[C@@H](O)[C@H](O[C@@H]6O[C@H](CO)[C@H](O)[C@H](O)[C@H]6O[C@@H]6O[C@@H](C)[C@H](O)[C@@H](O)[C@H]6O[C@@H]6OC[C@](O)(CO)[C@H]6O)[C@H]5O[C@@H]5O[C@H](CO)[C@H](O)[C@H](O)[C@H]5O)C(C)(C)C4CC[C@@]2(C)[C@]1(C)C[C@H]3OC(C)=O (stereo partly specified)
MEASURED_ON: JEG-3
METRIC: activity change, negative = cytotoxicity
DATA_VALUE: -6.17% [at 6.55 µM] (inactive)
//
COMPOUND: CC(C)=CC/C=C(/C)[C@H]1CC[C@]2(C)[C@@H]1[C@H](O)CC1[C@@]3(C)CC[C@H](O)C(C)(C)[C@@H]3[C@@H](O[C@@H]3O[C@H](CO)[C@@H](O)[C@H](O)[C@H]3O[C@@H]3O[C@@H](C)[C@H](O)[C@@H](O)[C@H]3O)C[C@]12C (stereo partly specified)
MEASURED_ON: JEG-3
METRIC: activity change, negative = cytotoxicity
DATA_VALUE: inactive
//
COMPOUND: CC1(C)CCC2(C(=O)OC3OC(COC4OC(CO)C(O)C(O)C4O)C(O)C(O)C3O)CCC3(C)C(=CCC4C5(C)CCC(O)C(C)(C(=O)O)C5CCC43C)C2C1O (stereo unspecified)
MEASURED_ON: JEG-3
METRIC: activity change, negative = cytotoxicity
DATA_VALUE: -2.36% [at 11.6 µM] (inactive)

Note: attention shifts to another entry.
### Prompt Please report the recorded activity change, negative = cytotoxicity for O=C(c1ccc(NS(=O)(=O)c2cccc3cccnc23)cc1)N1CCN(CC2CC2)CC1 .
### Response inactive

====

# Test system: CP262
# EXPERIMENTAL_DETAILS: qHTS profiling for inhibitors of Plasmodium falciparum proliferation (AID 504749); note: nearly all actives have a fitted effect of over 60% in size; note: potency is the fitted concentration of half-maximal effect
# TEST_CONDITIONS: P. falciparum in erythrocytes, SYBR Green DNA, 72 h; series mostly up to 28.7 µM
Results filed as inconclusive are left out. Active and inactive are the calls of the source. Calls come from the whole dose curve; as a rule, active = well fitted inhibition curve with a large enough effect; inconclusive = small, poorly fitted or top-dose-only effect; inactive = flat fitted curve, though single readings scatter.

COMPOUND: CC[N+](C)(C)Cc1ccccc1Br
Potency: inactive
//
COMPOUND: O=S(=O)(O)c1ccc2c(N=Nc3ccc(S(=O)(=O)O)c4ccccc34)c(O)c(S(=O)(=O)O)cc2c1
Potency: inactive
//
COMPOUND: COC(C(=O)C(O)C(C)O)C1Cc2cc3cc(OC4CC(OC5CC(O)C(O)C(C)O5)C(O)C(C)O4)c(C)c(O)c3c(O)c2C(=O)C1OC1CC(OC2CC(OC3CC(C)(O)C(O)C(C)O3)C(O)C(C)O2)C(O)C(C)O1 (centres undefined)
Potency: 2.13 µM (active)
//
COMPOUND: COCC(=O)Nc1cc(Sc2ccccc2)ccc1N=C(NC(=O)OC)NC(=O)OC
Potency: inactive

====

# EXPERIMENTAL_DETAILS: Drug repurposing screens with cells derived from glioblastoma tumor samples (AID 1345199); note: % is set by controls: 0 for no effect and ±100 for the full control effect; nearly all actives have a fitted effect of over 40% in size
# TEST_CONDITIONS: GBM patient neurospheres viability, ATP luminescence, 48 h; at 46 µM (top of the series); tumour line A
Results filed as inconclusive are left out.
METRIC: activity, negative = cell killing (%)
Give bare numbers, in %.

COMPOUND: C[C@@H]1C[C@H]2[C@@H]3CCC4=CC(=O)C=C[C@]4(C)[C@@]3(F)[C@@H](O)C[C@]2(C)[C@@]1(O)C(=O)COP(=O)(O)O
UNITS_SYMBOL: %
activity, negative = cell killing: -0.902
--
COMPOUND: CC1(C)O[C@@H]2C[C@H]3[C@@H]4CCC5=CC(=O)C=C[C@]5(C)[C@H]4[C@@H](O)C[C@]3(C)[C@]2(C(=O)CO)O1
UNITS_SYMBOL: %
activity, negative = cell killing: -10.6

Record activity, negative = cell killing for all entries; do not skip any.
1. O=C(O)CCC(=O)C(=O)O
2. C=CC1=C(C)C2=CC3=NC(=C(CC(=O)[O-])C4=NC(=C(C)C4=C([O-])[O-])C=c4[n-]c(c(C)c4CC)=CC1=N2)C(CCC(=O)[O-])C3C.[Cu+2].[Na+].[Na+].[Na+] (configuration not stated)
3. CC(=O)OC(C)OC(=O)C(C)c1ccc(-c2ccccc2)c(F)c1 (configuration not stated)
4. CC(=O)O[C@]1(C(C)=O)CC[C@H]2[C@@H]3CCC4=CC(=O)CC[C@]4(C)[C@@]3(F)[C@@H](O)C[C@@]21C
5. CCCCCCCCCCCCCCCC(=O)OCC(COC(=O)CCCCCCCCCCCCCCC)OC(=O)CCCCCCCCCCCCCCC
6. Nc1nc(N)c2nc(CNc3ccc(C(=O)N[C@@H](CCC(=O)O)C(=O)O)cc3)cnc2n1

### Response
1: -23.8; 2: -28; 3: -17.1; 4: 6.04; 5: -22.2; 6: -19.6

Record activity, negative = cell killing for all entries; do not skip any.
1. CCOC(C)=O
2. CN1C(=O)CN2CCc3ccccc3C2c2cc(Cl)ccc21 (configuration not stated)
3. N[C@H](C(=O)O)[C@@H]1CC(Cl)=NO1

### Response
-18.3
-22.5
-38.5

Record activity, negative = cell killing for all entries; do not skip any.
1. C[C@@H]1[C@H](O)[C@@H](C)/C=C/C=C\C=C\C=C\C=C\C=C\C=C\[C@H](O[C@@H]2O[C@H](C)[C@@H](O)[C@H](N)[C@@H]2O)C[C@@H]2O[C@](O)(C[C@@H](O)C[C@@H](O)[C@H](O)CC[C@@H](O)C[C@@H](O)CC(=O)O[C@H]1C)C[C@H](O)[C@H]2C(=O)O (stereo in doubt)
2. CC1=C(/C=C/C(C)=C/C=C/C(C)=C/C=C/C=C(C)/C=C/C=C(C)/C=C/C2=C(C)CCCC2(C)C)C(C)(C)CCC1
3. COC(=O)CCC(=O)CN
4. O=C(O)c1cc(O)c2c(c1)[O][Bi][O]2
5. CC1(C)S[C@@H]2[C@H](NC(=O)C(C(=O)O)c3ccsc3)C(=O)N2[C@H]1C(=O)O (some centres not stated)
6. O=C(O)CN(CCN(CC(=O)O)CC(=O)O)CC(=O)O

### Response
1: -13.6; 2: -34.5; 3: -28.4; 4: -19.4; 5: 0.915; 6: -14.7
